- Test system: U-87 MG
- protocol_notes: Concentration required to inhibit the entry of HIV-1 reporter virus (ADA) into U-87 cells by 50%
- Type: functional, cell-based, U-87MG ATCC
- test_settings: Homo sapiens, U-87 MG
property: IC50 (nM)

structure_smiles | quantitative_readout
CNC(=O)CO/N=C(\c1ccc(Br)cc1)C1CCN(C2(C)CCN(C(=O)c3c(C)cccc3C)CC2)CC1 | 4.4
CCO/N=C(\c1ccc(Br)cc1)C1CCN(C2(C)CCN(C(=O)c3cccnc3C)CC2)CC1 | 1.4
CCO/N=C(\c1ccc(Br)cc1)C1CCN(C2(C)CCN(C(=O)c3c(C)ccnc3C)CC2)CC1 | 0.2
CO/N=C(\c1ccc(Br)cc1)C1CCN(C2(C)CCN(C(=O)c3c(C)cc[n+]([O-])c3C)CC2)CC1 | 5.6
Cc1cccc(C)c1C(=O)N1CCC(C)(N2CCC(Cc3ccc(S(C)(=O)=O)cc3)CC2)CC1 | 7

(P) Cc1cccc(C)c1C(=O)N1CCC(C)(N2CCC(/C(=N/O)c3ccc(Br)cc3)CC2)CC1
(Q) CCO/N=C(\c1ccc(Br)cc1)C1CCN(C2(C)CCN(C(=O)c3c(C)cc[n+]([O-])c3C)CC2)CC1
Qu. Looking only at measured IC50, which entry is lower, P or Q ? Select an item and report its label.
Ans. Q

(P) Cc1cccc(C)c1C(=O)N1CCC(C)(N2CCC(C(=O)c3ccc(Br)cc3)CC2)CC1
(Q) C=C(c1ccc(Br)cc1)C1CCN(C2(C)CCN(C(=O)c3c(C)cccc3C)CC2)CC1
(R) CO/N=C(\c1ccc(Br)cc1)C1CCN(C2(C)CCN(C(=O)c3c(C)ccnc3C)CC2)CC1
Qu. Please list these compounds in decreasing order of IC50. Labels, ranked as asked.
Ans. P, Q, R
(P: 12 nM, Q: 1 nM, R: 0.5 nM)

----------
- protocol_notes: C max after oral administration at the dose 2/2 (IV/Po/mg/kg)
- Assay type: ADME, organism-based
- test_settings: cercopithecidae, in vivo, 2 mg/kg
property: Cmax (nM)
The answer is to be given in nM; state only the numeric part.

Qu. State the recorded Cmax for this entry: CCO/N=C(\c1ccc(Br)cc1)C1CCN(C2(C)CCN(C(=O)c3c(C)cc[n+]([O-])c3C)CC2)CC1
Ans. 760

----------
- System: Rattus norvegicus
- protocol_notes: Area under curve value at 0-6 hr in rat pharmacokinetic screening after 10 mg/kg peroral dose
- Assay type: ADME, organism-based
- Parameters: time < 6 hr, dose 10 mg/kg, route oral
- test_settings: in vivo, po
property: AUC (ng·h/mL)

molecule | unit_tag | quantitative_readout
CCO/N=C(\c1ccc(Br)cc1)C1CCN(C2(C)CCN(C(=O)c3c(C)cc(O)nc3C)CC2)CC1 | ng·h/mL | 210
CCO/N=C(\c1ccc(OC(F)(F)F)cc1)C1CCN(C2(C)CCN(C(=O)c3c(C)cc[n+]([O-])c3C)CC2)CC1 | ng·h/mL | 3000
CO/N=C(\c1ccc(Br)cc1)C1CCN(C2(C)CCN(C(=O)c3c(C)cccc3C)CC2)CC1 (stereo in doubt; 14c (Z)) | ng·h/mL | 1400
C=C(c1ccc(Br)cc1)C1CCN(C2(C)CCN(C(=O)c3c(C)cccc3C)CC2)CC1 | ng·h/mL | 590
CCO/N=C(\c1ccc(Br)cc1)C1CCN(C2(C)CCN(C(=O)c3c(F)cccc3C(F)(F)F)CC2)CC1 | ng·h/mL | 2700

(P) CCO/N=C(\c1ccc(Br)cc1)C1CCN(C2(C)CCN(C(=O)c3c(C)ccnc3C)CC2)CC1
(Q) CO/N=C(\c1ccc(Br)cc1)C1CCN(C2(C)CCN(C(=O)c3c(C)cccc3N)CC2)CC1
Qu. Which one would you say has the larger AUC value: P , or Q ? Please reply using the label of the selected record.
Ans. P
(P: 2100 ng·h/mL, Q: 1300 ng·h/mL)

(a) CO/N=C(\c1ccc(Br)cc1)C1CCN(C2(C)CCN(C(=O)c3c(C)cccc3C)CC2)CC1 (stereo in doubt)
(b) CO/N=C(\c1ccc(Br)cc1)C1CCN(C2(C)CCN(C(=O)c3c(C)cccc3O)CC2)CC1
Qu. Please tell me which of the two, a or b , has the higher reported AUC value. Use the label to indicate which entry you chose.
Ans. b
